target: human KV7.2/KV7.3 (Homo sapiens (Human), UniProt O43525+O43526); experiment: Potassium flux assay (IPG-2 AM dye); details: TREX HEK 293 or HEK 293 cells expressing human KV7.2/KV7.3; arithmetic mean values
Counter-ions that a name gives are not always drawn.
measurement type: EC50

The cases that follow already have their EC50 on record.
compound	measurement type	result
COc1ncc(Nc2nccc3cc(OCC4CC4)ccc23)cn1 [Example 372]	EC50	1000 to 10000 nM
O[C@@H]1CCC[C@H](Oc2ccc3c(Nc4cnc(Cl)nc4)nccc3c2)C1 (relative stereo) [Example 348]	EC50	< 1000 nM

Prompt line: Report EC50, nothing else, for this compound: COc1cc(Nc2nccc3cc(OCc4cnn(C)c4)ccc23)cnc1C [Example 55, formate]
Response line: < 1000 nM

Prompt line: Quick one: give measured EC50 for Cc1ncc(Nc2nccc3cc(OCc4cnn(C)c4)cnc23)cn1 [Example 258]
Response line: 1000 to 10000 nM

----------
A collection of compounds and their measured pEC50
molecular target: human KV7.2/KV7.3 (Homo sapiens (Human), UniProt O43525+O43526); test: Potassium flux assay (IPG-2 AM dye); conditions: TREX HEK 293 or HEK 293 cells expressing human KV7.2/KV7.3; arithmetic mean values
pEC50: −log10 of the molar value.

Prompt line: Consider the compound Clc1ncc(Nc2nccc3cc(OCCCc4cn[nH]c4)ccc23)cn1 . State its measured pEC50.
Response line: > 6.00

Prompt line: Give pEC50 for Clc1ccc(Nc2nccc3cc(O[C@@H]4CCCN(Cc5ccccc5)C4)ccc23)cn1
Response line: 5.00 to 6.00

Prompt line: Please list pEC50 recorded for the compound C[C@H](Oc1ccc2c(Nc3ccc(Cl)nc3)nccc2c1)C1(F)CC1
Response line: > 6.00

----------
target: human KV7.2/KV7.3 (Homo sapiens (Human), UniProt O43525+O43526); assay: Potassium flux assay (IPG-2 AM dye); details: TREX HEK 293 or HEK 293 cells expressing human KV7.2/KV7.3; arithmetic mean values
pEC50: −log10 of the molar value.
Parameter: pEC50. Scope: all listed entries.

In the examples that follow, each entry is paired with its recorded pEC50.
compound	pEC50
Clc1ccc(Nc2nccc3cc(OCCc4ncccn4)ccc23)cn1 [Example 387]	5.00 to 6.00
Clc1ccc(Nc2nccc3cc(OCc4cc[nH]n4)ccc23)cn1 [Example 391]	5.00 to 6.00
Cn1cc(COc2ccc3c(Nc4cnc(Cl)c(O)c4)nccc3c2)cn1 [Example 374]	> 6.00
Clc1ccc(Nc2nccc3cc(OC[C@H]4CCN(Cc5ccccc5)C4)ccc23)cn1 [Example 284]	5.00 to 6.00

# evaluate next
Prompt line: Under human KV7.2/KV7.3 (Homo sapiens (Human), UniProt O43525+O43526): report pEC50 of OC1CC2(C1)CC(Oc1ccc3c(Nc4ccc(Cl)nc4)nccc3c1)C2 (centres unmarked) [Example 153] .
Response line: > 6.00

----------
target: human KV7.2/KV7.3 (Homo sapiens (Human), UniProt O43525+O43526); experiment: Potassium flux assay (IPG-2 AM dye); conditions: TREX HEK 293 or HEK 293 cells expressing human KV7.2/KV7.3; arithmetic mean values
Counter-ions that a name gives are not always drawn.
Let's look at some molecules and their measured EC50.

Example molecules with recorded EC50:
molecule	EC50
Clc1ccc(Nc2nccc3cc(NCC4CC4)ccc23)cn1 [Example 230, formate]	10000 to 30000 nM
COCCNC(=O)c1ccc2c(Nc3ccc(Cl)nc3)nccc2c1 [Example 418]	10000 to 30000 nM
C[C@@]1(COc2ccc3c(Nc4ccc(Cl)nc4)nccc3c2)CCCO1 [Example 303]	1000 to 10000 nM
N#CCC1(COc2ccc3c(Nc4ccc(Cl)nc4)nccc3c2)COC1 [Example 134]	< 1000 nM
O[C@H]1CCC[C@@H](Oc2ccc3c(Nc4cnc(Cl)nc4)nccc3c2)C1 [Example 359]	< 1000 nM
FC(F)Oc1ccc2c(Nc3ccc(Cl)nc3)nccc2c1 [Example 7]	1000 to 10000 nM
FC1(COc2ccc3c(Nc4ccc(Cl)nc4)nccc3c2)CCOCC1 [Example 239]	< 1000 nM
CC[C@@H](OC)c1ccc2c(Nc3ccc(Cl)nc3)nccc2c1 [Example 130]	10000 to 30000 nM
Clc1ccc(Nc2nccc3cc(Cn4nccn4)ccc23)cn1 [Example 425]	1000 to 10000 nM
Cn1cc(Oc2ccc3c(Nc4ccc(Cl)nc4)nccc3c2)cn1 [Example 311]	1000 to 10000 nM

Prompt line: Fill: EC50 (human KV7.2/KV7.3 (Homo sapiens (Human), UniProt O43525+O43526)) for this molecule Cc1ncc(Nc2nccc3cc(OC(C)c4cnn(C)c4)ccc23)cn1 (stereo not shown) [Example 169]
Response line: 1000 to 10000 nM

Prompt line: State EC50 (human KV7.2/KV7.3 (Homo sapiens (Human), UniProt O43525+O43526)) of Clc1ccc(Nc2nccc3cc(OCc4ccncn4)ccc23)cn1 [Example 51] .
Response line: 1000 to 10000 nM

Prompt line: GET EC50 | system: human KV7.2/KV7.3 (Homo sapiens (Human), UniProt O43525+O43526) | item: N#CC1(COc2ccc3c(Nc4ccc(Cl)nc4)nccc3c2)CC2(COC2)C1 [Example 333]
Response line: < 1000 nM

Prompt line: Please indicate recorded EC50 of N#CC1(COc2ccc3c(Nc4cnc(Cl)nc4)nccc3c2)CC1 [Example 207] measured with human KV7.2/KV7.3 (Homo sapiens (Human), UniProt O43525+O43526).
Response line: < 1000 nM

Prompt line: Answer briefly: EC50 recorded on human KV7.2/KV7.3 (Homo sapiens (Human), UniProt O43525+O43526) for Clc1ccc(Nc2nccc3cc(OCc4cnoc4)ccc23)cn1 [Example 368]
Response line: < 1000 nM

Prompt line: Look up and report measured EC50 (human KV7.2/KV7.3 (Homo sapiens (Human), UniProt O43525+O43526)) for the following molecule: CC1(CNc2ccc3c(Nc4ccc(Cl)nc4)nccc3c2)COC1 [Example 245]
Response line: 1000 to 10000 nM

Prompt line: Give reported EC50 for C[C@@H](Oc1ccc2c(Nc3ccc(Cl)nc3)nccc2c1)C1(F)CC1 [Example 139] (human KV7.2/KV7.3 (Homo sapiens (Human), UniProt O43525+O43526))
Response line: 1000 to 10000 nM

Prompt line: Fetch value of EC50 on human KV7.2/KV7.3 (Homo sapiens (Human), UniProt O43525+O43526) for CCc1ncc(Nc2nccc3cc(OCC4(F)CC4)ccc23)cn1 [Example 44] .
Response line: 10000 to 30000 nM

Prompt line: Enter measured EC50, system human KV7.2/KV7.3 (Homo sapiens (Human), UniProt O43525+O43526), for the molecule shown: Clc1ccc(Nc2nccc3cc(OCC4CC4)ccc23)cn1 [Example 2]
Response line: < 1000 nM

Prompt line: State EC50 (human KV7.2/KV7.3 (Homo sapiens (Human), UniProt O43525+O43526)) of Clc1ccc(Nc2nccc3cc(OCCN4CC5(CCO5)C4)ccc23)cn1 [Example 70] .
Response line: 10000 to 30000 nM

Prompt line: State measured EC50 of the molecule N#CC1(COc2ccc3c(Nc4cnc(Cl)nc4)nccc3c2)COC1 [Example 208] with human KV7.2/KV7.3 (Homo sapiens (Human), UniProt O43525+O43526).
Response line: < 1000 nM

Prompt line: Report value only: EC50, human KV7.2/KV7.3 (Homo sapiens (Human), UniProt O43525+O43526), N#CC1(Oc2ccc3c(Nc4cnc(Cl)nc4)nccc3c2)CC1 [Example 60]
Response line: 1000 to 10000 nM
